# system-tested: T1, UHRF1^Δ627–674 (human, UniProt Q96T88 1-793, Δ627–674)
# T1 sequence: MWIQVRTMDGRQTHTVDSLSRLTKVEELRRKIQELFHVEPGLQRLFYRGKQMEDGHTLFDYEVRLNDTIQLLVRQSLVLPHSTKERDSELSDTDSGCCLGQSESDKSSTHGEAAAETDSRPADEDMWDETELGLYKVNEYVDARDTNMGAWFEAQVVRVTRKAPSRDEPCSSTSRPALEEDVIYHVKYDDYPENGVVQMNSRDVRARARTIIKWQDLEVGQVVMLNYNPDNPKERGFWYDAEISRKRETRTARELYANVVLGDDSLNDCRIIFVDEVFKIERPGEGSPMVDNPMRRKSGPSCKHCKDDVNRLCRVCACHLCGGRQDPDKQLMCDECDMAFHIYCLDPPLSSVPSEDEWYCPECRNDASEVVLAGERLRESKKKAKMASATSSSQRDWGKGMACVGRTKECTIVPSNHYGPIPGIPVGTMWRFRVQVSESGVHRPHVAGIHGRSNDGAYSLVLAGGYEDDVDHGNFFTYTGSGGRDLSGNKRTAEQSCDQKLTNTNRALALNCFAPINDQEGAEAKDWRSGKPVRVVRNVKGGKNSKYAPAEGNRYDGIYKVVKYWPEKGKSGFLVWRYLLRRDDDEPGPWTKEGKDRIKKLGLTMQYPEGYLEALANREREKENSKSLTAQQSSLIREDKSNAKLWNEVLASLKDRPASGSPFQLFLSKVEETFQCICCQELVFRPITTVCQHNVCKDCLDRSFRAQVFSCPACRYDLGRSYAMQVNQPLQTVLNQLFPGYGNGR
# test-name: ITC
endpoint: Kd (nM)
Give the quantity in nM, number only.

Q: I am curious: what Kd value has been reported for ARTKQTARKSTGGKAPR (trimethyl-lysine at K9) [H3K9me3 peptide (1–17)] ?
A: 1190
